What IC50 was measured for each of the following?
biological target: HCV-NS5b (Hepatitis C virus genotype 1b, UniProt Q9WMX2); construct: (His)6 (C); made in house; host or cells: XL-1 cells (E. coli), IPTG-inducible plasmid; experiment: HCV-NS5b enzyme assay using homopolymer substrate; assay type: biochemical; conditions: homopolymer substrate, [3H]-UTP incorporation, 30° C., 90 minutes; read-out: IC50
Numbers only, in nM.

Take a look at these entries with their results.
NCc1cn2c3c(cccc13)-c1c(C3CCCCC3)c3ccc(C(=O)O)cc3n1CCC2 [Compound 395] = 140
CN(C)Cc1cn2c3c(cccc13)-c1c(C3CCCCC3)c3ccc(C(=O)O)cc3n1CCC2 [Compound 111] = 106

Shifting focus to the compound that follows.
Input: Recorded IC50 for CN1CCN(Cc2cn3c4c(ccc(F)c24)-c2c(C4CCCCC4)c4ccc(C(=O)O)cc4n2CCC3)CC1 [Compound 348] , please?
Output: 143

* * *

target: NS5B (Hepatitis C virus genotype 1b, UniProt Q9WMX2)
IC50 strictly less than 8 nM = yes (1). Otherwise no (0).

Input: Check if IC50 falls below 8 nM for "CCN(C)Cc1c(C(=O)NS(=O)(=O)C2CC2)n2c3c(cccc13)-c1c(C3CCCCC3)c3ccc(C(=O)O)cc3n1CCC2" .
Output: no (0)

Input: Try this compound too: "CCN(C)Cc1c(C(=O)N2CCN(S(C)(=O)=O)CC2)n2c3c(cccc13)-c1c(C3CCCCC3)c3ccc(C(=O)O)cc3n1CCC2"
Output: no (0)

Input: Try this compound too: "CN(C)C(=O)c1c(CNC2CCOCC2)c2cccc3c2n1CCCn1c-3c(C2CCCCC2)c2ccc(C(=O)O)cc21"
Output: yes (1)

Input: Try this compound too: "O=C(O)c1ccc2c(C3CCCCC3)c3n(c2c1)CCCN1C(=O)Cc2cccc-3c21"
Output: no (0)

Input: Try this compound too: "CCN(C)Cc1c(C(=O)N2CC[C@@H](NC(C)=O)C2)n2c3c(cccc13)-c1c(C3CCCCC3)c3ccc(C(=O)O)cc3n1CCC2"
Output: yes (1)

Input: Try this compound too: "CC(C)N[C@@H]1CCN2CCn3c(c(C4CCCCC4)c4ccc(C(=O)O)cc43)-c3cccc1c32"
Output: yes (1)

Input: Try this compound too: "CC(C)N1CCCC[C@H]1C(=O)N(C)Cc1c(C(=O)N(C)C)n2c3c(cccc13)-c1c(C3CCCCC3)c3ccc(C(=O)O)cc3n1CCC2"
Output: yes (1)

Input: Try this compound too: "CC(C)(C)NC(=O)N[C@@H]1CCN2CCn3c(c(C4CCCCC4)c4ccc(C(=O)O)cc43)-c3cccc1c32"
Output: yes (1)

Input: Try this compound too: "CCN(C)Cc1c(C(=O)N2CCC(N(C)C)CC2)n2c3c(cccc13)-c1c(C3CCCCC3)c3ccc(C(=O)O)cc3n1CCC2"
Output: yes (1)

Input: Try this compound too: O=C(O)c1ccc2c(C3CCCCC3)c3n(c2c1)CCN1CCC(NC2CCCC2)c2cccc-3c21 (racemic)
Output: yes (1)
